The measurements presented in this section are drawn from patent US9255080B2.

# TESTED TARGET: PARP-1 enzyme (Homo sapiens)
# Sequence (P09874 whole entry): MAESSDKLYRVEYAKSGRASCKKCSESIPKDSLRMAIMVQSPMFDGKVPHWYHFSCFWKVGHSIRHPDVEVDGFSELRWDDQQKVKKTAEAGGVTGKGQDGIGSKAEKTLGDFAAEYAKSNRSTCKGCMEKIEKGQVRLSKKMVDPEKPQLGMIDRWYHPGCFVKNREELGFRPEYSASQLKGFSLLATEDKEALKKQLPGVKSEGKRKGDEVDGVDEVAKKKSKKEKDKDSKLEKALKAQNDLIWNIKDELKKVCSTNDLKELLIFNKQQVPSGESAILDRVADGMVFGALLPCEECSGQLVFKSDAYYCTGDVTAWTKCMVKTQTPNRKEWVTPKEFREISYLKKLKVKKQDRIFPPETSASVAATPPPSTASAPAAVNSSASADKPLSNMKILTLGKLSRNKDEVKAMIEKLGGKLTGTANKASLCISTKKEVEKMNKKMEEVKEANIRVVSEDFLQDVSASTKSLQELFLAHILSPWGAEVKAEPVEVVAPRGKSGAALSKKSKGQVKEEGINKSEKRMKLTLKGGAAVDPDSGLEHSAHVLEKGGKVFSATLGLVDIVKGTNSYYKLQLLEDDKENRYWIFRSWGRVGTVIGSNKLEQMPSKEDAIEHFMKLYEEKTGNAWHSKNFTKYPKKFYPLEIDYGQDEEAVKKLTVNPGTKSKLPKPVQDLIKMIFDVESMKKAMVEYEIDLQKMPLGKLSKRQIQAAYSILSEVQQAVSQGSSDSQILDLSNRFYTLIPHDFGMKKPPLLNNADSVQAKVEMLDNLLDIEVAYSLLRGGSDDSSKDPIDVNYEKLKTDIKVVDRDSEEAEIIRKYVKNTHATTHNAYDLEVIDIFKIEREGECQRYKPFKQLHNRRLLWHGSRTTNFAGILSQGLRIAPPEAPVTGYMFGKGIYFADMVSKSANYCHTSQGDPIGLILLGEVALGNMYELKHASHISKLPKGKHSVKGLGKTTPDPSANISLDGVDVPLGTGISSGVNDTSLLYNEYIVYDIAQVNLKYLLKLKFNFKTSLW
# TEST PROTOCOL: In vitro scintillation proximity assay (SPA) for PARP-1 inhibitory activity
# Type: biochemical
# REPORTED CONDITIONS: [3H]-NAD+, biotinylated histones, nicked DNA; read-out: in vitro SPA assay PARP-1 pIC50 (converted)
IC50 overview
ENDPOINT: IC50

[[record]]
compound = "O=c1[nH]c(=O)n(CCCN2CCC(O)(c3ccc(Cl)cc3)CC2)c2ccccc12 [Compound 7]"
endpoint = "IC50"
recorded_measurement = "292 nM"

[[record]]
compound = "O=c1[nH]c(=O)n(C2CCNCC2)c2ccccc12 [Compound 1]"
endpoint = "IC50"
recorded_measurement = "204 nM"

[[record]]
compound = "O=C(c1ccc(F)cc1)C1CCN(CCn2c(=O)[nH]c(=O)c3ccccc32)CC1 [Compound 10]"
endpoint = "IC50"
recorded_measurement = "220 nM"

[[record]]
compound = "O=C(CCCN1CCC(n2c(=O)[nH]c(=O)c3ccccc32)CC1)c1ccc(F)cc1 [Compound 2]"
endpoint = "IC50"
recorded_measurement = "257 nM"

[[record]]
compound = "O=c1[nH]c(=O)n(C2CCN(CCCn3c(=O)[nH]c4ccccc43)CC2)c2ccccc12 [Compound 5]"
endpoint = "IC50"
recorded_measurement = "348 nM"

[[record]]
compound = "O=c1[nH]c(=O)n(CCN2CCC(O)(c3ccc(Cl)cc3)CC2)c2ccccc12 [Compound 6]"
endpoint = "IC50"
recorded_measurement = "167 nM"

[[record]]
compound = "O=c1[nH]c(=O)n(C2CCN(CC(O)C3CCc4ccccc4O3)CC2)c2ccccc12 (stereo in doubt) [Compound 9]"
endpoint = "IC50"
recorded_measurement = "359 nM"

[[record]]
compound = "O=C(c1ccc(F)cc1)C1CCN(CCCn2c(=O)[nH]c(=O)c3ccccc32)CC1 [Compound 11]"
endpoint = "IC50"
recorded_measurement = "221 nM"

